- System: Acinetobacter baumannii ATCC17961
- assay_comment: Antimicrobial susceptibility testing: 90% growth inhibitory concentration (IC90) determination in Iso-Sensitest broth, OD600 growth
- Format: cell-based
- recorded_conditions: Acinetobacter baumannii, ATCC17961, 16 h, strain ATCC 17961, OD600 growth over 16 h, read-out: A. baumannii ATCC 17961 IC90
Structures can show the parent of a compound that is named as a salt.
Reported values of IC90 for individual entries
Entry rule: numbers only, all in µM.

Solved cases below.
>>> quantitative_readout("CCc1cc(Nc2nccn3c(-c4cn(CC#N)nc4C(F)(F)F)cnc23)ccc1C(=O)NCC(=O)NCC1CCNCC1")
0.395
>>> quantitative_readout("CCc1cc(Nc2nccn3c(-c4cn(CC(O)CC)nc4C(F)(F)F)cnc23)ccc1C(=O)NCCOCCN (centres unmarked)")
0.346
>>> quantitative_readout("N#CCn1cc(-c2cnc3c(Nc4ccc(C(=O)NCC(=O)N5CCNCC5)c(Cl)c4)nccn23)c(C(F)(F)F)n1 [Example 501, formate]")
0.224
>>> quantitative_readout("O=C(NC1CN(C(=O)c2ccc(Nc3nccn4c(-c5c[nH]nc5C(F)(F)F)cnc34)cc2Cl)C1)[C@@H]1C[C@@H](O)CN1")
0.357
>>> quantitative_readout("N#CCn1cc(-c2cnc3c(Nc4ccc(C(=O)N[C@H]5[C@@H]6CN(C(=O)N[C@@H]7CNC[C@H]7O)C[C@@H]65)c(Cl)c4)nccn23)c(C(F)(F)F)n1 [Example 825, formic acid salt]")
0.11
>>> quantitative_readout("N#CCn1cc(-c2cnc3c(Nc4ccc(C(=O)N5CC6(CN(C(=O)CN)C6)C5)c(Cl)c4)nccn23)c(C(F)(F)F)n1")
0.27
>>> quantitative_readout("CCc1cc(Nc2nccn3c(-c4cn(CC#N)nc4C(F)(F)F)cnc23)ccc1C(=O)NCC1CCN(CC2CNC2)CC1")
0.35

The record that follows has no IC90 shown yet.
**Query** Report IC90, nothing else, for this molecule: CCCn1cc(-c2cnc3c(Nc4ccc(C(=O)NCCOCCN)c(CC)c4)nccn23)c(C(F)(F)F)n1 [Example 25, hydrochloride]
**Result** 0.141

###

- Test system: Acinetobacter baumannii ATCC17961
- assay_comment: Antimicrobial susceptibility testing: 90% growth inhibitory concentration (IC90) determination in Iso-Sensitest broth, OD600 growth
- Type: cell-based
- recorded_conditions: Acinetobacter baumannii, ATCC17961, 16 h, strain ATCC 17961, OD600 growth over 16 h, read-out: A. baumannii ATCC 17961 IC90
Structures can show the parent of a compound that is named as a salt.
reported_property: log10 of IC90 (log10 of the value in nM)
Answers are given as log10 of IC90 in nM.

>>> quantitative_readout("Cc1cc(Nc2nccn3c(-c4c[nH]nc4C(F)(F)F)cnc23)ccc1C(=O)N1CCN(C(=O)C2(O)CCCNC2)CC1 (stereo not shown) [Example 436, hydrochloride]")
2.73
>>> quantitative_readout("CCc1cc(Nc2nccn3c(-c4cn(CCNC)nc4C(F)(F)F)cnc23)ccc1C(=O)NC")
3.12
>>> quantitative_readout("Cc1cc(Nc2nccn3c(-c4cn(CC#N)nc4C(F)(F)F)cnc23)cc(F)c1C(=O)NCCOCCN")
3.23
>>> quantitative_readout("Cc1cc(Nc2nccn3c(-c4cn(CC(F)F)nc4C(F)(F)F)cnc23)cc(F)c1C(=O)N1CCN(C(=O)[C@H]2[C@@H]3CNC[C@@H]32)CC1")
2.55
>>> quantitative_readout("N#CCn1cc(-c2cnc3c(Nc4ccc(C(=O)N5CCN(C(=O)CN)CC5)c(F)c4)nccn23)c(C(F)(F)F)n1 [Example 813, hydrochloride]")
2.32
>>> quantitative_readout("Cc1cc(Nc2nccn3c(-c4c[nH]nc4C(F)(F)F)cnc23)cc(F)c1C(=O)N[C@H](C)CN")
3.39
>>> quantitative_readout("CNC(=O)c1ccc(Nc2nccn3c(-c4cn(Cc5ccn(CC#N)n5)nc4C(F)(F)F)cnc23)cc1Cl")
2.57
>>> quantitative_readout("CCc1cc(Nc2nccn3c(-c4c[nH]nc4C(F)(F)F)cnc23)ccc1C(=O)NCCOC[C@@H](C)N")
2.41

**Query** Report log10 of IC90, nothing else, for this compound: CCc1cc(Nc2nccn3c(-c4cn(CC(F)F)nc4C(F)(F)F)cnc23)ccc1C(=O)N[C@@H](C)CN
**Result** 2.31

**Query** Report log10 of IC90, nothing else, for this compound: N#CCn1cc(-c2cnc3c(Nc4ccc(C(=O)N5CC(O)C5)c(Cl)c4)nccn23)c(C(F)(F)F)n1
**Result** 2.29

###

Reported values of IC90 for individual entries
- Test system: Acinetobacter baumannii ATCC17961
- assay_comment: Antimicrobial susceptibility testing: 90% growth inhibitory concentration (IC90) determination in Iso-Sensitest broth, OD600 growth
- Format: cell-based
- recorded_conditions: strain ATCC 17961, OD600 growth over 16 h, read-out: A. baumannii ATCC 17961 IC90

Solved cases below.
>>> result("Cc1cc(Nc2nccn3c(-c4cn(CC#N)nc4C(F)(F)F)cnc23)cc(F)c1C(=O)N[C@H](C)CNC(=O)[C@H]1C[C@@H](N)C1 [Example 709]")
"404 nM"
>>> result("N[C@@H]1CC[C@H](NC(=O)N2CCN(C(=O)c3ccc(Nc4nccn5c(-c6c[nH]nc6C(F)(F)F)cnc45)cc3Cl)CC2)C1 [Example 233]")
"169 nM"

**Query** Report IC90, nothing else, for this compound: C[C@@H](O)CNC(=O)c1ccc(Nc2nccn3c(-c4cn(CC#N)nc4C(F)(F)F)cnc23)cc1Cl [Example 237]
**Result** 196 nM

**Query** Report IC90, nothing else, for this compound: N#CCn1cc(-c2cnc3c(Nc4ccc(C(=O)N5CCN(C(=O)N6CC[C@@H](N)C6)CC5)c(Cl)c4)nccn23)c(C(F)(F)F)n1 [Example 179]
**Result** 181 nM

Numbers sourced from patent US20230203043A1.
